Could you please report measured ELISA absorbance at 450 nm for the items listed next?
Biological target: T1, recombinant human DLL4 (Cat# 1506-D4/CF, R&D Systems) (human, UniProt Q9NR61 27-529)
T1 construct: Bought protein; also called hDLL4; rHuman DLL4
Experiment: ELISA, DLL4 coated, Fab 20 nM

Query: // Input: Fab VH1-46_IGHD6-6*01_IGHJ1*01 S102A/S103P/S104F/H111F I51A/N52L/S54T/G56H & L6_IGKJ1*01 S28N/S30D/S31H (Fab, V domains shown, Fab made in E. coli: VH on CH1 with His6 and Flag tags (Plasmid A), VL on kappa CL (Plasmid C); also called H: APFF ALTH & L: NDH) VH: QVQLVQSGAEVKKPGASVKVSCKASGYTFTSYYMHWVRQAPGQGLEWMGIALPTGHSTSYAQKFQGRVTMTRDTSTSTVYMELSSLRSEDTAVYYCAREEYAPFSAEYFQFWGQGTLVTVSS VL: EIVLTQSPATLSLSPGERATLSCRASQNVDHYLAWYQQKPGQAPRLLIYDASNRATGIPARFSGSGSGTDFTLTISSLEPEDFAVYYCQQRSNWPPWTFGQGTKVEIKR . Output its ELISA absorbance at 450 nm only.
Reply: 0.391 A450

Turning now to a further record.
Query: // Input: Fab VH1-46_IGHD6-6*01_IGHJ1*01 S102A/S103P/S104F/H111F I51V/N52L/S54T/G56H & L6_IGKJ1*01 S28N/S30D/S31H S52L/A55G (Fab, V domains shown, Fab made in E. coli: VH on CH1 with His6 and Flag tags (Plasmid A), VL on kappa CL (Plasmid C); also called H: APFF VLTH & L: NDH LG) VH: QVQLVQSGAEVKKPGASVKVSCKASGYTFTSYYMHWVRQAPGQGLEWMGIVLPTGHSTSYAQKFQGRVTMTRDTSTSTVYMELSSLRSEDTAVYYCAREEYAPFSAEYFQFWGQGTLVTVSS VL: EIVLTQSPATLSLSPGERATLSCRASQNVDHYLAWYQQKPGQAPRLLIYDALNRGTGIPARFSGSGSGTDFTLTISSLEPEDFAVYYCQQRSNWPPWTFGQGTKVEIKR . Output its ELISA absorbance at 450 nm only.
Reply: 1.06 A450
